Target: recombinant soluble rat CD73 (Rattus norvegicus, UniProt P21588)
Sequence (P21588 29-551 limits assumed): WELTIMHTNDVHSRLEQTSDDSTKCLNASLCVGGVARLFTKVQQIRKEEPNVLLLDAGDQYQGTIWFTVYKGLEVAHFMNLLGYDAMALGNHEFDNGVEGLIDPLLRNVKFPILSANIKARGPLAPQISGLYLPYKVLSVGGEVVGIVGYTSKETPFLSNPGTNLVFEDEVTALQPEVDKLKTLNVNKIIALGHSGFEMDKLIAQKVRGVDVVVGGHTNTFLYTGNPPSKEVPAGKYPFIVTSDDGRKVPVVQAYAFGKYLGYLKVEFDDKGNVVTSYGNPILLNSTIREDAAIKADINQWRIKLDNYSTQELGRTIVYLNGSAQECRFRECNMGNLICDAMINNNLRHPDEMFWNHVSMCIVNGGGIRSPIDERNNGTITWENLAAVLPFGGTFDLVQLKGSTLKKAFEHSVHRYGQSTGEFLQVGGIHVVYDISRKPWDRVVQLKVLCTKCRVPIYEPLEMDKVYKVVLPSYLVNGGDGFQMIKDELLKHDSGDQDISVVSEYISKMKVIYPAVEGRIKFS
Test: Radiometric rat ecto-5′-nucleotidase (CD73) assay with [3H]AMP
Catalogue of Ki readings, one per entry.

structure_smiles | unit_info | Ki
CCn1c(=O)n([C@@H]2O[C@H](COP(=O)(O)CP(=O)(O)O)[C@@H](O)[C@H]2O)cc/c1=N/OCc1ccccc1 | nM | 262
Cn1c(=O)n([C@@H]2O[C@H](COP(=O)(O)CP(=O)(O)O)[C@@H](O)[C@H]2O)cc/c1=N/OCc1ccccc1 | nM | 3.67

====

Biological target: recombinant soluble human CD73 (Homo sapiens, UniProt P21589)
Construct: 6xHis (C); secretion signal peptide of vector pACGP67B (N); made in house; host or cells: Sf9 insect cells (baculovirus)
Sequence (P21589 28-549): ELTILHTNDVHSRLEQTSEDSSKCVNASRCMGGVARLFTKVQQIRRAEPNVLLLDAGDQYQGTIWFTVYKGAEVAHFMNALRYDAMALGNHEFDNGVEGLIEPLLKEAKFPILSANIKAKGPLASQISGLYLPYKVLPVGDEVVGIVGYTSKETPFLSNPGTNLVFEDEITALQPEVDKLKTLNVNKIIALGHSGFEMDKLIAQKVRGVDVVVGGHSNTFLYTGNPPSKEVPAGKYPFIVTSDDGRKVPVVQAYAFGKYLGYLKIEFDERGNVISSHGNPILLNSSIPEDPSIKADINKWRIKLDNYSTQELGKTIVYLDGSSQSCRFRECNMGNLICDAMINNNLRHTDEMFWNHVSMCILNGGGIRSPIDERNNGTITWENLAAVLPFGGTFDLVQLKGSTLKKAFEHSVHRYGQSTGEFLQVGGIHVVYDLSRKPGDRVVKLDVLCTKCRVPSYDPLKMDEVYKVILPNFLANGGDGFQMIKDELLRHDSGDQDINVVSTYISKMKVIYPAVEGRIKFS
Assay: Radiometric CD73 inhibition assay, recombinant soluble human CD73
Type: biochemical
Settings: Table 6; human soluble CD73; read-out: Ki at hCD73
Catalogue of Ki readings, one per entry.

structure_smiles | Ki
Cn1c(=O)n([C@@H]2O[C@H](COP(=O)(O)CP(=O)(O)O)[C@@H](O)[C@H]2O)cc/c1=N/OCc1ccc(-c2cn(CCF)nn2)cc1 | 0.627 nM
C#Cc1ccc(CO/N=c2/ccn([C@@H]3O[C@H](COP(=O)(O)CP(=O)(O)O)[C@@H](O)[C@H]3O)c(=O)n2C)cc1 | 0.664 nM
Cn1c(=O)n([C@@H]2O[C@H](COP(=O)(O)CP(=O)(O)O)[C@@H](O)[C@H]2O)cc/c1=N/OCc1cccc(Cl)c1 | 1.61 nM
Cn1c(=O)n([C@@H]2O[C@H](COP(=O)(O)CP(=O)(O)O)[C@@H](O)[C@H]2O)cc/c1=N/OCc1cccc(C(F)(F)F)c1 | 1.44 nM
